# ASSAY_EXPLANATION: inhibitors of TNFa-induced NFkB p65 translocation, primary screen, imaging, HUVEC, MLSMR starter and 10KST1 sets (AID 438);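 note: compound added about 3h40 before a 20 min TNFalpha stimulation; signal is the nuclear over cytoplasmic p65 intensity ratio per well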
# ASSAY_CONTEXT: HUVEC TNFa-induced p65 nuclear translocation; at 2 µM, active compounds read high, 0% TNFa-plus-vehicle, 100% no-TNFa wells
# inhibition per entry
Answer in %, number only, no unit symbol.

Use these answered entries as a reference point.
Asked: For the compound "CCCCOC(=O)Nc1ccc(S(=O)(=O)Nc2nc(C)cc(C)n2)cc1" , give its reported inhibition.
Given back: -10.1

Asked: For the compound "CC[C@H]1OC(=O)C[C@@H](O)[C@H](C)[C@@H](O[C@@H]2O[C@H](C)C[C@H](N(C)C)[C@H]2O)[C@@H](CC=O)C[C@@H](C)C(=O)C=C[C@]2(C)O[C@H]2[C@@H]1C" , give its reported inhibition.
Given back: -3.7

Asked: For the compound "O=C(O)c1nsc(Cl)c1Cl" , give its reported inhibition.
Given back: -18.8

Asked: For the compound "Cc1cccc(OCC(=O)N2CCC(N3CCOCC3)CC2)c1" , give its reported inhibition.
Given back: -12.6

Asked: For the compound "C[C@]12CC[C@@H]3c4ccc(O[C@@H]5O[C@H](C(=O)O)[C@@H](O)[C@H](O)[C@H]5O)cc4CC[C@H]3[C@@H]1C[C@@H](O)[C@@H]2O" , give its reported inhibition.
Given back: -2.6

Asked: For the compound "Cc1ccnc(N2CCN(c3c4c(c(C#N)c5nc6ccccc6n35)CCC4)CC2)c1" , give its reported inhibition.
Given back: -9

Asked: For the compound "O=C(CCN1C(=O)c2ccccc2C1=O)OCN1C(=O)c2ccccc2C1=O" , give its reported inhibition.
Given back: 2.7

Asked: For the compound COc1ccc(-n2c(=O)c3c4c(sc3n3c(C)nnc23)CC(C)CC4)cc1 (centres undefined) , give its reported inhibition.
Given back: 3.9

As a next step, examine the compound that follows.
Asked: For the compound "COc1ccc(CN2CCC(=O)NC2=O)cc1" , give its reported inhibition.
Given back: -14.7
